# SYSTEM_UNDER_TEST: Recombinant human cathepsin S (CatS) (Homo sapiens)
# Sequence (P25774 115-331): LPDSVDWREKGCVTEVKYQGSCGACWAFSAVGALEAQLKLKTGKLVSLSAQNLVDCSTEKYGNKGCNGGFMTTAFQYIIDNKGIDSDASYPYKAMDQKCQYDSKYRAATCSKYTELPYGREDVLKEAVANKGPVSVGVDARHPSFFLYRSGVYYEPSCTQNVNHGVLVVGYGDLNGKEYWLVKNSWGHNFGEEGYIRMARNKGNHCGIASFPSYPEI
# MEASUREMENT_NOTES: Recombinant human cathepsin S (CatS) inhibition assay, fluorogenic substrate Z-Valine-Valine-Arginine-AMC;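 also: Baculovirus-expressed CatS in pH 5.0 sodium acetate buffer with DTT and NaCl, fluorescence read each minute over 20 min, inhibition derived from rate slope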
Mark each entry true if its IC50 sits below 90 nM, and false for all others.

Regarding CS(=O)(=O)N1CCc2c(c(-c3ccc(Cl)c(C#Cc4ccc(Oc5ccc(I)cc5)cc4)c3)nn2CCCN2CCOCC2)C1 , kindly confirm whether its IC50 is beneath 90 nM.
false

# strict comparison: is reported IC50 < 90 nM? input = CS(=O)(=O)N1CCc2c(c(-c3ccc(Cl)c(CCCNS(=O)(=O)c4cccc(C#N)c4)c3)nn2CCCN2CCC(N3CCCC3=O)CC2)C1
false

Criterion: IC50 strictly below 90 nM. Is it met by CC(C)(O)CNCc1cc(C#Cc2cc(-c3nn(CCCN4CCSCC4)c4c3CN(C(=O)C(N)=O)CC4)ccc2Cl)ccc1Cl ?
true

Decide: IC50 of CS(=O)(=O)N1CCc2c(c(-c3ccc(Cl)c(CCCc4ccccc4)c3)nn2CCCN2CCOCC2)C1 strictly below 90 nM?
false

Check if IC50 falls below 90 nM for CC(C)(C)OC(=O)NCc1ccccc1C#Cc1cc(-c2nn(CCCN3CCOCC3)c3c2CN(S(C)(=O)=O)CC3)ccc1Cl .
false

Decide: IC50 of CS(=O)(=O)N1CCc2c(c(-c3ccc(Cl)c(C#Cc4ccc(CN[C@@H]5Cc6ccccc6[C@@H]5O)cc4)c3)nn2CCCN2CCOCC2)C1 strictly below 90 nM?
false

Please indicate whether the reported IC50 of Cc1ccc(S(=O)(=O)NCCCc2cc(-c3nn(CCCN4CCOCC4)c4c3CN(S(C)(=O)=O)CC4)ccc2Cl)cc1 is strictly below 90 nM.
false

Please let me know if COC(=O)[C@@H]1Cc2ccc(C#Cc3cc(-c4nn(CCCN5CCOCC5)c5c4CN(S(C)(=O)=O)CC5)ccc3Cl)cc2CN1C(=O)OC(C)(C)C shows IC50 below 90 nM.
false

Please check: IC50 for CN1CCc2ccc(C#Cc3cc(-c4nn(CCCN5CCN(c6ccccc6)CC5)c5c4CN(S(C)(=O)=O)CC5)ccc3Cl)cc2C1 , strictly under 90 nM or not?
true

Could you please tell me whether IC50 recorded for COc1ccc(S(=O)(=O)NCCCc2cc(-c3nn(CCCN4CCOCC4)c4c3CN(S(C)(=O)=O)CC4)ccc2Cl)cc1 is less than 90 nM?
false

Decide: IC50 of CS(=O)(=O)N1CCc2c(c(-c3ccc(Cl)c(C#Cc4ccc5c(c4)CN[C@@H](C(=O)O)C5)c3)nn2CCCN2CCOCC2)C1 strictly below 90 nM?
false

Determine if CC(=O)N1CCc2c(c(-c3ccc(Cl)c(C#Cc4ccc(CNCc5ccc(Cl)cc5)cc4)c3)nn2CCCN2CCOC[C@@H]2C)C1 shows IC50 strictly lower than 90 nM.
false

Problem: For the molecule CS(=O)(=O)N1CCc2c(c(-c3ccc(Cl)c(C#Cc4ccc5c(c4)CN[C@H](C(=O)N4CCCCC4)C5)c3)nn2CCCN2CCOCC2)C1 , is IC50 under 90 nM?
true

Could you please tell me whether IC50 recorded for NC(=O)C1CCN(CCCn2nc(-c3ccc(Cl)c(C#Cc4ccc(CNCc5ccc(Cl)cc5)cc4)c3)c3c2CCN(C(N)=O)C3)CC1 is less than 90 nM?
true

Given the entry CS(=O)(=O)N1CCc2c(c(-c3ccc(C(F)(F)F)c(CCc4ccc(Cl)cc4)c3)nn2CC(O)CN2CCC(N3CCCC3=O)CC2)C1 (centres unmarked) , would its reported IC50 be below 90 nM?
true

API: query returns whether the molecule falls strictly under 90 nM in IC50. Query: NC(=O)N1CCc2c(c(-c3ccc(Cl)c(C#Cc4ccc(COCC5CNCCO5)cc4)c3)nn2CCCN2CCSCC2)C1 (centres unmarked)
false

API: query returns whether the molecule falls strictly under 90 nM in IC50. Query: CC1CCCN(CCCCc2cc(-c3nn(CCCN4CCC(N5CCCC5=O)CC4)c4c3CN(S(C)(=O)=O)CC4)ccc2Cl)C1 (centres unmarked)
false

Just wondering, is IC50 of CS(=O)(=O)N1CCc2c(c(-c3ccc(Cl)c(C#Cc4ccc(CNCc5ccc(Cl)cc5)cc4)c3)nn2CCCN2CCOCC2)C1 below 90 nM?
false

Determine whether this molecule shows IC50 lower than 90 nM (ties excluded): C[C@H]1COCCN1CCCn1nc(-c2ccc(Cl)c(C#Cc3ccc4c(c3)CN(C3CC3)CC4)c2)c2c1CCNC2
false

Is IC50 of CCOC(=O)C1CCN(CCCn2nc(-c3ccc(Cl)c(C#Cc4ccc(CNCc5ccc(Cl)cc5)cc4)c3)c3c2CCN(S(C)(=O)=O)C3)CC1 strictly below 90 nM?
true

Strictly below 90 nM in IC50? NC(=O)C(=O)N1CCc2c(c(-c3ccc(Cl)c(C#Cc4ccc(Cl)c(CN[C@@H](CO)c5ccccc5)c4)c3)nn2CCCN2CCSCC2)C1
true

IC50 strictly < 90 nM for this molecule? CS(=O)(=O)N1CCc2c(c(-c3ccc(Cl)c(CCCNC(=O)c4ccccc4)c3)nn2CCCN2CCOCC2)C1
false

Check if IC50 falls below 90 nM for NC(=O)N1CCc2c(c(-c3ccc(Cl)c(C#Cc4ccc(Cl)c(CNC5CCCC5)c4)c3)nn2CCCN2CCSCC2)C1 .
true

Confirm or reject: IC50 of NC(=O)C(=O)N1CCc2c(c(-c3ccc(Cl)c(C#Cc4ccc(CNCc5ccc(Cl)cc5)cc4)c3)nn2CCCN2C[C@@H]3C[C@H]2CO3)C1 lies strictly below 90 nM
true
